Source of measurements: paper PMC9939319

# Target under test: TRPA1 (Homo sapiens, UniProt O75762)
# Sequence (O75762 whole entry): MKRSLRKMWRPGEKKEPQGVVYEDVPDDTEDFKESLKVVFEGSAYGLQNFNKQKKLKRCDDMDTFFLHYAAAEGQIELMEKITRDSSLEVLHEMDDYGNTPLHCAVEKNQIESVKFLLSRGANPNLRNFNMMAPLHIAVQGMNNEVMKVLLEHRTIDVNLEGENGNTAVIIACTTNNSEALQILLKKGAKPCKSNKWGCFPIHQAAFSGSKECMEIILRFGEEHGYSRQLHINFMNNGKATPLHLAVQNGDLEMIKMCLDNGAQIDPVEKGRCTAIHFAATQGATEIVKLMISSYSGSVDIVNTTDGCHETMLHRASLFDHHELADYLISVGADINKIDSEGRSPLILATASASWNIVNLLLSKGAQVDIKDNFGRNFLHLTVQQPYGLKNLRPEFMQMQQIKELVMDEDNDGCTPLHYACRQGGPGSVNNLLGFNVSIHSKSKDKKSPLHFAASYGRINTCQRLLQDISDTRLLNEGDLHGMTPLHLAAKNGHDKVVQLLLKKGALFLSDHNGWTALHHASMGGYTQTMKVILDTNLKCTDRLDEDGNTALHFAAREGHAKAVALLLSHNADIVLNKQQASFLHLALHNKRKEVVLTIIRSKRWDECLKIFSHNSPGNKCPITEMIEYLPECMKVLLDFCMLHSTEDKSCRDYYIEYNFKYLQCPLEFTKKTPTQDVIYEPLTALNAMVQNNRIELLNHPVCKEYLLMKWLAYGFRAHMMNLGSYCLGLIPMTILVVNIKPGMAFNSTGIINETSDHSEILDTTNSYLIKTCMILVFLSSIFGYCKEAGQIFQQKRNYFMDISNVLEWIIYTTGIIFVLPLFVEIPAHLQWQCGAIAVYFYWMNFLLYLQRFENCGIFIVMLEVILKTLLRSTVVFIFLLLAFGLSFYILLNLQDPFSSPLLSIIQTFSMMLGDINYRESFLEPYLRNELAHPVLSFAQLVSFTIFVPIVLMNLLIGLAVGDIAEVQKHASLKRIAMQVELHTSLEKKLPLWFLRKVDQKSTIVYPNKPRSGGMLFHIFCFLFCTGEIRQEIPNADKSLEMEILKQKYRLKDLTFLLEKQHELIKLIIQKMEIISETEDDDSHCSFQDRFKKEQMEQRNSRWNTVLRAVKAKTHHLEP
# Assay explanation: calcium flux in TRPA1-overexpressing HEK-293 cells
Result type: pEC50
# pEC50 = -log10(concentration in molar units)

## Task Find the recorded pEC50 belonging to CC(C)(C)c1ccc(O)c(C(C)(C)C)c1 and report it.
## Result 3.65
